target: HIV-1 protease (Human immunodeficiency virus type 1 group M subtype B, UniProt P12497)
pIC50: −log10 of the molar value.

| molecule | pIC50 |
| --- | --- |
| CC(=O)C(=O)COc1ccc(C[C@H](C[C@H](O)[C@H](Cc2ccccc2)NC(=O)OC(C)(C)C)C(=O)N[C@H]2c3ccccc3C[C@H]2O)cc1 [Compound 4] | 10.12 |
